Target: human plasma kallikrein (Homo sapiens, UniProt P03952)
Sequence (P03952 391-638 limits assumed): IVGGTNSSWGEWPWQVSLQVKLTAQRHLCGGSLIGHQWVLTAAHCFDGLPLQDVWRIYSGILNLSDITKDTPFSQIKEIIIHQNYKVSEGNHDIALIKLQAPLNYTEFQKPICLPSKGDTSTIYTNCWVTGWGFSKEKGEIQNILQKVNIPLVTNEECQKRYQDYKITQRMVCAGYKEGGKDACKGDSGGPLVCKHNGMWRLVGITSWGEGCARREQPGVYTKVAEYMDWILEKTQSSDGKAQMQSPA
Sequence (P03952 20-390 partner limits assumed): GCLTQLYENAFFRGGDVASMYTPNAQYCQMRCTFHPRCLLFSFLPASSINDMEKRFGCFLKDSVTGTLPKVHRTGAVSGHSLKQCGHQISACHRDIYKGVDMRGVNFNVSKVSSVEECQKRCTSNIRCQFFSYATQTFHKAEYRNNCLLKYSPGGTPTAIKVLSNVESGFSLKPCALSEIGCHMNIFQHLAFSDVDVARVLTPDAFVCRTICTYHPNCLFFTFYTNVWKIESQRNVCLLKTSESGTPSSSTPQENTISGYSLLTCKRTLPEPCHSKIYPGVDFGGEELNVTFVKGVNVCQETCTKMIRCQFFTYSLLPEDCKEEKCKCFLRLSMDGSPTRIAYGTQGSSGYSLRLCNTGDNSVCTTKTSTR
Assay: Kallikrein inhibition assay utilizing a quenched AMC peptide substrate (FLINT)
Conditions: 30 min preincubation, 50 μM Z-Gly-Pro-Arg-AMC, 2 nM kallikrein
pIC50: −log10 of the molar value.
property: pIC50

Value of measured pIC50 for the entry Nc1ccc(-c2cnc([C@@H]3CCc4c5c(cc(=O)n43)-c3c(ccc(Cl)c3F)CCNC5=O)[nH]2)c(F)n1 (stereo in doubt) : < 5.00

Value of measured pIC50 for the entry Cn1ncc(-c2cnc(C(CC3CC3)n3cc4c(cc3=O)-c3c(ccc(Cl)c3F)CC3(CC3)NC4=O)[nH]2)cc1=O (single isomer, unassigned) [Compound 58] : < 5.00

Value of measured pIC50 for the entry Cn1ncc(-c2cnc(C(CC3CC3)n3cc4c(cc3=O)-c3c(ccc(Cl)c3F)CC3(CC3)NC4=O)[nH]2)cc1=O (single isomer, unassigned) [Compound 59] : < 5.00

Value of measured pIC50 for the entry O=C1NC2(CC2)Cc2ccc(Cl)c(F)c2-c2cc(=O)n3c(c21)CC[C@@H]3c1ncc(-c2ccc3[nH]ccc3c2)[nH]1 (single isomer, unassigned) [Compound 17] : < 5.00

Value of measured pIC50 for the entry CN1C(=O)c2c(cc(=O)n3c2CC[C@@H]3c2ncc(-c3ccc(N)nc3F)[nH]2)-c2c(ccc(Cl)c2F)CC12CC2 (stereo in doubt) : < 5.00

Value of measured pIC50 for the entry O=C1NC2(CC2)Cc2ccc(Cl)c(F)c2-c2cc(=O)n3c(c21)CC[C@H]3c1ncc(-c2ccc3snnc3c2)[nH]1 (stereo in doubt) : < 5.00

---

Biological target: human plasma kallikrein (Homo sapiens)
Test: Kallikrein inhibition assay utilizing a quenched AMC peptide substrate (FLINT)
Conditions: 30 min preincubation, 50 μM Z-Gly-Pro-Arg-AMC, 2 nM kallikrein
Task for the reader: assign each of the following compounds its reported IC50.

Value of measured IC50 for the entry O=C1NC2(CC2)Cc2ccc(Cl)c(F)c2-c2cc(=O)n(C(CC3CC3)c3ncc(-c4ccc(F)cc4)[nH]3)cc21 (single isomer, unassigned) [Compound 64] : > 10 µM

Value of measured IC50 for the entry Nc1ccc(-c2cnc([C@@H]3CCc4c5c(cc(=O)n43)-c3c(ccc(Cl)c3F)CC3(CCCC3)NC5=O)[nH]2)c(F)n1 (stereo in doubt) : 0.09 µM

Value of measured IC50 for the entry Nc1ccc(-c2cnc([C@@H]3CCc4c5c(cc(=O)n43)-c3c(ccc(Cl)c3F)CC3(CC3)N(CCO)C5=O)[nH]2)c(F)n1 (single isomer, unassigned) [Compound 11] : > 10 µM

---

Molecular target: UniProtKB P03951
Sequence (P03951 388-625 limits assumed): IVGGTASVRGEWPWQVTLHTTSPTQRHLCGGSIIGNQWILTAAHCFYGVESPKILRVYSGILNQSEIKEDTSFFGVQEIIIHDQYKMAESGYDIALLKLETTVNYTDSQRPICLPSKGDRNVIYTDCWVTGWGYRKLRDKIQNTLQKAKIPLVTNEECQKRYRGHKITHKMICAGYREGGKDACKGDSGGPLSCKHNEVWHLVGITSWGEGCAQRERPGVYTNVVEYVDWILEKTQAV
Sequence (P03951 19-387 partner limits assumed): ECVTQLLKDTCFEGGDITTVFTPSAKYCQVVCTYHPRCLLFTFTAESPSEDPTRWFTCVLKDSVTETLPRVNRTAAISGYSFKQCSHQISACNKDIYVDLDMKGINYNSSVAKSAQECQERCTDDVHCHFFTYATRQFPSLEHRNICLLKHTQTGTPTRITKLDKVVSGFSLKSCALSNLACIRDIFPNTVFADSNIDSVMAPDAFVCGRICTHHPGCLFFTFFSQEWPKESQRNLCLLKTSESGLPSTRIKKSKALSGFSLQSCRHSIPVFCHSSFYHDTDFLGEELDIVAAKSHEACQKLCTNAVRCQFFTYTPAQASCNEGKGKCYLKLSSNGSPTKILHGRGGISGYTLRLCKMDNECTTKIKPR
Test: Factor XIa inhibition assay utilizing a fluorophore-quencher pair peptide substrate (FLINT)
Type: biochemical
Details: read-out: FXIa Ki
Class (by Ki) -- group A: < 1 nM; group B: ≥ 1 nM and < 20 nM; group C: ≥ 20 nM

Class (by measured Ki) for COC(=O)Nc1ccc(-c2cnc([C@H](CC3CC3)n3cc4c(cc3=O)-c3c(ccc(Cl)c3F)CC3(CC3)NC4=O)[nH]2)cc1 [Compound 61]
group A

Class (by measured Ki) for O=C1NC2(CC2)Cc2ccc(Cl)c(F)c2-c2cc(=O)n(C(CC3CC3)c3ncc(-c4cc[n+]([O-])cc4)[nH]3)cc21 (single isomer, unassigned) [Compound 56]
group C

Class (by measured Ki) for Nc1ccc(-c2cnc([C@H]3CCc4c5c(cc(=O)n43)-c3c(ccc(Cl)c3F)CC3(CC3)NC5=O)[nH]2)c(Cl)n1 (stereo in doubt) [Compound 53]
group C

Class (by measured Ki) for Nc1ccc(-c2cnc([C@H]3CCc4c5c(cc(=O)n43)-c3c(ccc(Cl)c3F)CC3(CCCC3)NC5=O)[nH]2)c(F)n1 (stereo in doubt) [Compound 34]
group B

Class (by measured Ki) for O=C1NC2(CC2)Cc2ccc(Cl)c(F)c2-c2cc(=O)n3c(c21)CC[C@H]3c1ncc(-c2ccc3[nH]ccc3c2)[nH]1 (single isomer, unassigned) [Compound 16]
group C

Class (by measured Ki) for O=C1NC2(CC2)Cc2ccc(Cl)c(F)c2-c2cc(=O)n3c(c21)CC[C@@H]3c1ncc(-c2ccc3[nH]cnc3c2)[nH]1 (stereo in doubt) [Compound 6]
group A

Class (by measured Ki) for O=C1NC2(CC2)Cc2ccc(Cl)c(F)c2-c2cc(=O)n3c(c21)CC[C@H]3c1ncc(-c2ccc3cncn3c2)[nH]1 (stereo in doubt) [Compound 23]
group B

Class (by measured Ki) for O=C1NC2(CC2)Cc2ccc(Cl)c(F)c2-c2cc(=O)n([C@@H](CC3CC3)c3ncc(-c4ccncc4)[nH]3)cc21 (single isomer, unassigned) [Compound 67]
group B

Class (by measured Ki) for O=C1NC2(CC2)Cc2ccc(Cl)c(F)c2-c2cc(=O)n3c(c21)CC[C@H]3c1ncc(-c2ccn3ccnc3c2)[nH]1 (stereo in doubt) [Compound 7]
group B

Class (by measured Ki) for O=C1NC2(CC2)Cc2ccc(Cl)c(F)c2-c2cc(=O)n3c(c21)CC[C@H]3c1ncc(-c2ccc3snnc3c2)[nH]1 (stereo in doubt) [Compound 31]
group C

Class (by measured Ki) for Nc1ccc(-c2cnc([C@@H]3CCc4c5c(cc(=O)n43)-c3c(ccc(Cl)c3F)CC3(CC3)NC5=O)[nH]2)c(Cl)n1 [Compound 52]
group A

Class (by measured Ki) for Nc1ccc(-c2cnc([C@@H]3CCc4c5c(cc(=O)n43)-c3c(ccc(Cl)c3F)CC3(CCCC3)NC5=O)[nH]2)c(F)n1 (stereo in doubt) [Compound 35]
group A

Class (by measured Ki) for CC1(C)Cc2ccc(Cl)c(F)c2-c2cc(=O)n3c(c2C(=O)N1)CC[C@@H]3c1ncc(-c2ccc(N)nc2F)[nH]1 (single isomer, unassigned) [Compound 21]
group C

Class (by measured Ki) for Nc1ccc(-c2cnc(C3CCc4c5c(cc(=O)n43)-c3c(ccc(Cl)c3F)CC3(CC3)NC5=O)[nH]2)c(F)n1 (single isomer, unassigned) [Compound 55]
group A

Class (by measured Ki) for COC(=O)Nc1ccc(-c2cnc(C(CC3CC3)n3cc4c(cc3=O)-c3c(ccc(Cl)c3F)CC3(CC3)NC4=O)[nH]2)cc1 (single isomer, unassigned) [Compound 62]
group C

Class (by measured Ki) for O=C1NC2(CC2)Cc2ccc(Cl)c(F)c2-c2cc(=O)n3c(c21)CCC3c1ncc(-c2ccn3c(Br)cnc3c2)[nH]1 (single isomer, unassigned) [Compound 72]
group B

Class (by measured Ki) for Nc1ccc(-c2cnc(C3CCc4c5c(cc(=O)n43)-c3cc(Cl)ccc3CC3(CC3)NC5=O)[nH]2)c(F)n1 (centres unmarked) [Compound 2]
group B
